- ASSAY TARGET: DLG2_1, Q15700
- EXPERIMENT NOTES: holdup assay
- Parameters: key: below the threshold = too weak to quantify, mostly under pKd 3.1 to 4
- SETUP CONDITIONS: plain residues with an end cap or a label only (N-terminal biotin on a linker: ttds)
READOUT LABEL: pKd
Response field accepts a number only; no unit should be typed.

Would you please look over these solved cases?
{"columns": ["BINDER", "READOUT LABEL", "OBS VALUE"],
 "data": [
  ["SGGKRKETLV [NET1, Q7Z628]", "pKd", 4.87],
  ["SRSRRRETAL [HPV33-E6, P06427]", "pKd", 5.13],
  ["PSRDRKETSI [RALBP1, Q15311]", "pKd", 4.34]
]}

Value of pKd reported for the binder KLVIKTETTV [RASSF6, Q6ZTQ3] is 4.95

Value of pKd reported for the binder SHSSKGETAV [FZD7, O75084] is 4.38

Value of pKd reported for the binder PPRQRSETQV [HPV82-E6, Q9IR59] is 4.32
